// provenance: the supplement of paper PMC10567573

B1: DUSP5 (parent)
chain: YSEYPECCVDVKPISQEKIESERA

variants of: B1; assay: protein stability index of a GFP-peptide fusion (GPS, HEK-293T) (PSI 1-6); higher = more stable; conditions: c terminus: a fixed tail appended;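 note: lentivirally expressed fusions sorted by FACS into six bins by GFP to DsRed ratio, PSI derived from sequencing read proportions per bin multiplied by bin number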
PARAMETER: protein stability index
Answer using only a numeral; do not append any unit.

Recorded protein stability index, per entry:
{"QUERY SEQUENCE": "YSEYPECCVDVKPISQTKIESERA [E17T]", "VALUE MEASURED": 3.89}
{"QUERY SEQUENCE": "YSEYPECCVDVKPISQEKISSERA [E20S]", "VALUE MEASURED": 3.97}

// fetch protein stability index given entry YSEYPECCVDVKPVSQEKIESERA [I14V]
4.11

// fetch protein stability index given entry YSEYPEVCVDVKPISQEKIESERA [C7V]
3.95
